targetDesc: mutant B-RAF (Homo sapiens, UniProt P15056, V600E)
Construct: purchased Upstate (Charlottesville, Va.)
Sequence (P15056 whole entry V600E): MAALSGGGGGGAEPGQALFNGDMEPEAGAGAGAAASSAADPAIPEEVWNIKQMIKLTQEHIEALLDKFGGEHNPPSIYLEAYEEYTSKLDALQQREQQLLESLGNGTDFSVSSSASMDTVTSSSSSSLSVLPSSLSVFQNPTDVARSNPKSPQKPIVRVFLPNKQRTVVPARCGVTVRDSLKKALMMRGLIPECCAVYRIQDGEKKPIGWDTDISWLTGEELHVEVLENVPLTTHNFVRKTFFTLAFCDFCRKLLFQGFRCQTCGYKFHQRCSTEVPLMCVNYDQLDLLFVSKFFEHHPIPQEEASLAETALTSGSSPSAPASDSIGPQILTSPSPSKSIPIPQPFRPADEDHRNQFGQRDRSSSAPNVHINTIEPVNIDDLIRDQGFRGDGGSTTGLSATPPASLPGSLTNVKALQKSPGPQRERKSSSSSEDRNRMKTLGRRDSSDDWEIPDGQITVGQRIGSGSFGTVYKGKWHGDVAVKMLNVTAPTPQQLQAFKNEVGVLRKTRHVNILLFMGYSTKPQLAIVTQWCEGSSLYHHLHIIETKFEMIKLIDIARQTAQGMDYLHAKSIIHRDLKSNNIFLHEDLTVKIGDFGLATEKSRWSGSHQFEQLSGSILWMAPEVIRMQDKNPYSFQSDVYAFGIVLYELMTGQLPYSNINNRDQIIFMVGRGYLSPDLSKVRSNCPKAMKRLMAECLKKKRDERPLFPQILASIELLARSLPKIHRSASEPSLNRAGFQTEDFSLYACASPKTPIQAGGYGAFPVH
runDescription: RAF biochemical assay (MEK-1 phosphorylation, anti-phospho MEK1/2 detection)
runParameters: @ 10 uM; read-out: Mutant B-RAF % inhibition
// values below are reported inhibition at 10 µM
Just the number plus its unit, please.

Below are worked cases with known answers.
compound	quantity	result
Cc1ccccc1-c1nc2occn2c1-c1ccnc(NC2CCNCC2)n1 [Example 304]	inhibition at 10 µM	56%
O=C(Nc1ccc(C(F)(F)F)cc1)N1CCC(Nc2nccc(-c3c(-c4ccc(F)cc4)nc4occn34)n2)CC1 [Example 182]	inhibition at 10 µM	45%
CCN(C)C(=O)N1CCC(Nc2nccc(-c3c(-c4ccc(F)cc4)nc4sccn34)n2)CC1 [Example 232]	inhibition at 10 µM	56%
COc1ccc(Cl)cc1S(=O)(=O)N1CCC[C@@H](Nc2nccc(-c3c(-c4ccc(F)cc4)nc4occn34)n2)C1 [Example 61]	inhibition at 10 µM	37%
CS(=O)(=O)N1CCC(Nc2nccc(-c3c(-c4ccccc4Cl)nc4occn34)n2)CC1 [Example 311]	inhibition at 10 µM	61%

## Task Could you share which inhibition at 10 µM value was measured for Cc1nc(C)c(S(=O)(=O)N2CCC(Nc3nccc(-c4c(-c5ccc(F)cc5)nc5occn45)n3)CC2)s1 [Example 230] ?
## Result 50%

## Task Could you share which inhibition at 10 µM value was measured for CCOC(=O)c1ccc(-c2nc3sccn3c2-c2ccnc(N[C@@H]3CCCNC3)n2)cc1OCC [Example 128] ?
## Result 24%

## Task Could you share which inhibition at 10 µM value was measured for O=C(NCc1ccccc1)N1CCC[C@@H](Nc2nccc(-c3c(-c4ccc(F)c(F)c4)nc4sccn34)n2)C1 [Example 87] ?
## Result 53%

----------
targetDesc: mutant B-RAF (Homo sapiens, UniProt P15056, V600E)
Construct: purchased Upstate (Charlottesville, Va.)
runDescription: RAF biochemical assay (MEK-1 phosphorylation, anti-phospho MEK1/2 detection)
runParameters: read-out: Mutant B-RAF IC50
quantity: IC50

N#Cc1cccc(-c2nc3sccn3c2-c2ccnc(N[C@@H]3CCCN(S(=O)(=O)c4ccc(C(=O)O)cc4)C3)n2)c1 > 3 µM
COc1ccccc1-c1nc2sccn2c1-c1ccnc(NC2CCNCC2)n1 > 3 µM
COc1cccc(-c2nc3sccn3c2-c2ccnc(NC3CCN(S(=O)(=O)c4ccc(Cl)cc4)CC3)n2)c1 > 5 µM

## Task Could you share which IC50 value was measured for `O=S(=O)(c1ccc(Cl)cc1)N1CCC(Nc2nccc(-c3c(-c4ccc(F)c(F)c4)nc4sccn34)n2)CC1` ?
## Result > 3 µM

----------
// values below are reported inhibition at 10 µM
targetDesc: mutant B-RAF (Homo sapiens, UniProt P15056, V600E)
Construct: purchased Upstate (Charlottesville, Va.)
runDescription: RAF biochemical assay (MEK-1 phosphorylation, anti-phospho MEK1/2 detection)
runParameters: @ 10 uM; read-out: Mutant B-RAF % inhibition
Could you give me the number in %? Just the number is fine.

COc1cc(-c2nc3sccn3c2-c2ccnc(N[C@@H]3CCCN(S(=O)(=O)c4ccc(Cl)cc4)C3)n2)ccc1Cl 40
CC(=O)N1CCC(Nc2nccc(-c3c(-c4ccccc4Cl)nc4occn34)n2)CC1 39
CC(=O)Nc1nc(C)c(S(=O)(=O)N2CCC(Nc3nccc(-c4c(-c5ccc(F)cc5)nc5occn45)n3)CC2)s1 40

API: the following record is the query input.
## Task Could you share which inhibition at 10 µM value was measured for `CC(=O)N1CCC(Nc2nccc(-c3c(-c4ccc(F)cc4)nc4sccn34)n2)CC1` ?
## Result 41

----------
targetDesc: mutant B-RAF (Homo sapiens, UniProt P15056, V600E)
Construct: purchased Upstate (Charlottesville, Va.)
runDescription: RAF biochemical assay (MEK-1 phosphorylation, anti-phospho MEK1/2 detection)
runParameters: @ 10 uM; read-out: Mutant B-RAF % inhibition
quantity: inhibition at 10 µM (%)
Could you give me the number in %? Just the number is fine.

COc1cccc(OC)c1C(=O)N1CCC(Nc2nccc(-c3c(-c4ccc(F)cc4)nc4occn34)n2)CC1 38
COc1cccc(-c2nc3sccn3c2-c2ccnc(N[C@H]3CCCNC3)n2)c1 42

## Task Could you share which inhibition at 10 µM value was measured for `CC(=O)N1CCC(Nc2nccc(-c3c(-c4ccc(F)cc4F)nc4occn34)n2)CC1` ?
## Result 33

## Task Could you share which inhibition at 10 µM value was measured for `CCN1CCC(Nc2nccc(-c3c(-c4ccc(F)cc4)nc4sccn34)n2)CC1` ?
## Result 36

## Task Could you share which inhibition at 10 µM value was measured for `CC(C)CC(=O)N1CCC[C@@H](Nc2nccc(-c3c(-c4cccc(O)c4)nc4sccn34)n2)C1` ?
## Result 52

## Task Could you share which inhibition at 10 µM value was measured for `O=C(NCc1ccccc1)N1CCC(Nc2nccc(-c3c(-c4ccc(F)c(F)c4)nc4sccn34)n2)CC1` ?
## Result 63
